Examples of molecules with documented MIC follow.
- System: Enterobacter cloacae
- measurementProtocol: MIC micro broth dilution assay
- Type: cell-based
- conditionParameters: Enterobacter cloacae, E. cloacae isolate 1454

{"smilesStr": "CCCCCCCN1C(=N)N(CCCC[C@H]2CNC(=N)N2CCCCC2CCCCC2)C[C@@H]1CC1CCCCC1", "MIC [µM]": 2}
{"smilesStr": "CCCCCCCN1C(=N)N(CCCC[C@H]2CNC(=N)N2CCc2cccc(C(F)(F)F)c2)C[C@@H]1CC1CCCCC1", "MIC [µM]": 2}
{"smilesStr": "CCCC[C@H]1CN(CCCC[C@H]2CNC(=N)N2CCc2cccc(C(F)(F)F)c2)C(=N)N1CCCCC1CCCCC1", "MIC [µM]": 2}
{"smilesStr": "CCCCCCCN1C(=N)N(CCCC[C@H]2CNC(=N)N2CCc2cccc(C(F)(F)F)c2)C[C@@H]1CCCC", "MIC [µM]": 3}

---

- Test system: Enterobacter cloacae
- measurementProtocol: MIC micro broth dilution assay
- Format: cell-based
- conditionParameters: Enterobacter cloacae, E. cloacae isolate 1431
measurementName: MIC

{"smilesStr": "CCCCCCCN1C(=N)N(CCCC[C@H]2CNC(=N)N2CCc2cccc(C(F)(F)F)c2)C[C@@H]1CCCC", "targetOrTestSystem": "Enterobacter cloacae", "reading": "5 µM"}
{"smilesStr": "CCCCCCCN1C(=N)N(CCCC[C@H]2CNC(=N)N2CCCCC2CCCCC2)C[C@@H]1CC1CCCCC1", "targetOrTestSystem": "Enterobacter cloacae", "reading": "2 µM"}
{"smilesStr": "CCCCCCCN1C(=N)N(CCCC[C@H]2CNC(=N)N2CCc2cccc(C(F)(F)F)c2)C[C@@H]1CC1CCCCC1", "targetOrTestSystem": "Enterobacter cloacae", "reading": "2 µM"}
{"smilesStr": "CCCC[C@H]1CN(CCCC[C@H]2CNC(=N)N2CCc2cccc(C(F)(F)F)c2)C(=N)N1CCCCC1CCCCC1", "targetOrTestSystem": "Enterobacter cloacae", "reading": "2 µM"}

---

- Test system: Klebsiella pneumoniae
- measurementProtocol: MIC micro broth dilution assay
- Format: cell-based
- conditionParameters: Klebsiella pneumoniae, K. pneumoniae isolate 1410
Examples of compounds with documented MIC follow.
measurementName: MIC (µM)

{"smilesStr": "CCCC[C@H]1CN(CCCC[C@H]2CNC(=N)N2CCc2cccc(C(F)(F)F)c2)C(=N)N1CCCCC1CCCCC1", "reading": 2}
{"smilesStr": "CCCCCCCN1C(=N)N(CCCC[C@H]2CNC(=N)N2CCc2cccc(C(F)(F)F)c2)C[C@@H]1CC1CCCCC1", "reading": 2}
{"smilesStr": "CCCCCCCN1C(=N)N(CCCC[C@H]2CNC(=N)N2CCCCC2CCCCC2)C[C@@H]1CC1CCCCC1", "reading": 3}
{"smilesStr": "CCCCCCCN1C(=N)N(CCCC[C@H]2CNC(=N)N2CCc2cccc(C(F)(F)F)c2)C[C@@H]1CCCC", "reading": 3}

---

- System: Acinetobacter baumannii
- measurementProtocol: MIC micro broth dilution assay
- Type: cell-based
- Parameters: key: stacked score = 100/MIC
- conditionParameters: A. baumannii
stacked score activity, 100/MIC, A values by entry
measurementName: stacked score activity, 100/MIC, A

{"compound": "CCCCCCCN1C(=N)NC[C@@H]1CCCCN1C[C@@H](CCC)NC1=N [Compound 34]", "reading": 0}
{"compound": "CCCCCCCN1C(=N)N(CCCC[C@H]2CNC(=N)N2CCC23CC4CC(CC(C4)C2)C3)C[C@H]1Cc1cccc2ccccc12 [Compound 22]", "reading": 25}
{"compound": "CCCCCCCN1C(=N)N(CCCC[C@H]2CNC(=N)N2CCCCC2CCCCC2)C[C@@H]1CCCC [Compound 10]", "reading": 25}
{"compound": "CCCCCCCN1C(=N)N(CCCC[C@H]2CNC(=N)N2CCCCC2CCCCC2)C[C@@H]1CC1CCCCC1 [Compound 16]", "reading": 33}

Data origin: patent US20170065564A1
